Provenance of the data: PubChem BioAssay (NCI)

Provide the reported TGI of each item.
Test system: KM12 colon
experimentalProtocol: NCI tumour cell line growth inhibition, 48 h
One number for each entry, in µM.

Recorded results for 3 compounds are shown here.
compound | reported
CCN1CCN(C(=O)[C@]23CC[C@@H](C)[C@H](C)[C@@H]2C2=CC[C@@H]4[C@@]5(C)CCC(=O)C(C)(C)[C@@H]5CC[C@@]4(C)[C@]2(C)CC3)CC1 | 2.22
N#CC1=C(O)NC(O)=C(C#N)C1c1c(Cl)cccc1Cl | 71.5
O=C1OC(OC/C(Br)=C(\Br)COC2OC(=O)C(Cl)=C2Cl)C(Cl)=C1Cl (stereo unspecified) | 55.7

Please look at the items below and tell me TGI for each one, in order.
1. CC(=O)C1=C(C)N(Cc2ccccc2)C2(O)C=CC(=O)C3=C(O)c4ccccc4C(=O)C312 (stereo unspecified)
2. Cc1cc(I)cc(CN(C)CCCN2CCC(C)CC2)c1O
3. O=C1C(c2ccccc2)=C(c2ccccc2)C1(Cl)Cl
4. COC(=O)CC[C@@H](C)[C@H]1CC[C@H]2[C@@H]3CC[C@@H]4C[C@H](O)CC[C@]4(C)[C@H]3CC[C@]12C
5. O=C(Nc1ccc(Cl)c(Cl)c1)c1ccc(NC2=C(Cl)C(=O)N(Cc3ccccc3)C2=O)cc1
6. CCC[CH2][Sn]1([CH2]CCC)[O]C(=O)c2cccc([N+](=O)[O-])c2C(=O)[O]1

## Result
26
27.9
19.2
34.5
27.2
3.16
